tested on: Candida tropicalis; assay: Antifungal activity against Candida tropicalis clinical isolate after 24 hrs by sabouraud dextrose broth based microdilution method; format: functional
What MIC was measured for each of the following?
Your answer is read as µg/mL, so omit the unit and give the number.

Prompt: Record request: MIC value, item "CC(C)=N/N=C1\SCC(=O)N1Cc1cccc2ccccc12"
Response: 2

Prompt: Record request: MIC value, item "O=C1c2ccccc2C(=O)N1CN1C(=O)CS/C1=N\N=C\c1cccnc1"
Response: 16

Prompt: Record request: MIC value, item "CCC(CC)=N/N=C1\SCC(=O)N1CN1C(=O)c2ccccc2C1=O"
Response: 8

Prompt: Record request: MIC value, item "C/C(=N\N=C1/SCC(=O)N1Cc1ccc([N+](=O)[O-])cc1)C1CCCCC1"
Response: 32

Prompt: Record request: MIC value, item "CCC(CC)=N/N=C1\SCC(=O)N1Cc1cccc2ccccc12"
Response: 2

Prompt: Record request: MIC value, item "O=C1CS/C(=N\N=C\c2cccnc2)N1Cc1cccc2ccccc12"
Response: 8

Prompt: Record request: MIC value, item "C/C(=N\N=C1/SCC(=O)N1Cc1cccc2ccccc12)c1ccccn1"
Response: 2

Prompt: Record request: MIC value, item "C/C(=N\N=C1/SCC(=O)N1CN1C(=O)c2ccccc2C1=O)c1ccccn1"
Response: 2

Prompt: Record request: MIC value, item "CCCCCC/C(C)=N/N=C1\SCC(=O)N1CN1C(=O)c2ccccc2C1=O"
Response: 16

Prompt: Record request: MIC value, item "O=C1CS/C(=N\N=C\c2cccnc2)N1Cc1ccc([N+](=O)[O-])cc1"
Response: 256
